- target or system: T1, neuropeptide Y5 receptor (Homo sapiens (Human)), Q15761
- T1 chain: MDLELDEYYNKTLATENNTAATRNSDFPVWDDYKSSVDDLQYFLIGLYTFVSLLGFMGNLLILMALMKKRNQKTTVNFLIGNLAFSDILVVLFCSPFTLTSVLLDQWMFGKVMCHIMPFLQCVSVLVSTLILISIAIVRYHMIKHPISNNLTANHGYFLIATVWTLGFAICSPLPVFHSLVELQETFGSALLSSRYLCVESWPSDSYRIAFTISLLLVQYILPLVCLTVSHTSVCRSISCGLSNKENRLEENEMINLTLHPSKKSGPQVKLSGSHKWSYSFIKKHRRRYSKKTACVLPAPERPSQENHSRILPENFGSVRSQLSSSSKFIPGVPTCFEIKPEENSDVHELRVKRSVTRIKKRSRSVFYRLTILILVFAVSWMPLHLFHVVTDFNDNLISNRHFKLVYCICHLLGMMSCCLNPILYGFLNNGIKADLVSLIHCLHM
- method notes: radioligand competition, [125I]-hPYY, Y5/CHO-K1 membranes
measurement name: Y5RBA

APLEPVYPGDNATPEQMNRYYASLRAYLNLVTRQRY (modifications not checked) [SEQ ID NO 308] | 1.4 nM
APLEPVYPGDNATPEQLNRYYASLRHYLNLVTRQRY (modifications not checked) [SEQ ID NO 295] | 0.63 nM
YAIKPEAPGEDASPEELAQYAADLRRYINMLTRQRY (modifications not checked) [SEQ ID NO 318] | 1.9 nM
